These data points were gathered from patent US11098059B2.

# SYSTEM UNDER TEST: Full-length (FL)-PRMT5-MEP50 enzyme complex (Homo sapiens (Human))
# Sequence (O14744 whole entry): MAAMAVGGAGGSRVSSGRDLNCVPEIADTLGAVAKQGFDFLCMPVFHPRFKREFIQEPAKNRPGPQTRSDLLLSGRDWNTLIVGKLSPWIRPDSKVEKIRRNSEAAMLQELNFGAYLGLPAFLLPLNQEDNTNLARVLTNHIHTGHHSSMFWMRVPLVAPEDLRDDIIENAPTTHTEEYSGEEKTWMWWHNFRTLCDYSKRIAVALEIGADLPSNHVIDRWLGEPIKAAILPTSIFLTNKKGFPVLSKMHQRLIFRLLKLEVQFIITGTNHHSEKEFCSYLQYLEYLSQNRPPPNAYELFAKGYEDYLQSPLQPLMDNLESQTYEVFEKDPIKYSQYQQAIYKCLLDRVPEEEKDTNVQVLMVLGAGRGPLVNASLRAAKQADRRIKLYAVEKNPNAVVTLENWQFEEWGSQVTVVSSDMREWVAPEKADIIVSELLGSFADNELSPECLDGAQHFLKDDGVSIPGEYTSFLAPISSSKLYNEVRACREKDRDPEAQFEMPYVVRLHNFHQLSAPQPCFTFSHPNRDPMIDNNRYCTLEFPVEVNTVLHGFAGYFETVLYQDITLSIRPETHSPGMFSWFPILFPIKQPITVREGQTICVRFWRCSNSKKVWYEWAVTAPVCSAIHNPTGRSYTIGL
# Sequence (Q9BQA1 whole entry partner): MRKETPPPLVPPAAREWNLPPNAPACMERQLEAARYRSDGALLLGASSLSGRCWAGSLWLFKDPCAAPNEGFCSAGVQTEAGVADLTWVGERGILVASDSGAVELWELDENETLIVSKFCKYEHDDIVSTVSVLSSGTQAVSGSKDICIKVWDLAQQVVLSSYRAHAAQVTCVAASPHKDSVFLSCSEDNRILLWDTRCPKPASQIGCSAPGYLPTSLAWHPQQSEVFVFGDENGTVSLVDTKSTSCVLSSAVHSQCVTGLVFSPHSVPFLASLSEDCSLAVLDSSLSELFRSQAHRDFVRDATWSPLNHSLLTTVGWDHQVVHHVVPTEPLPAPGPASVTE
# ASSAY PROCEDURE: PRMT5-MEP50 Enzyme Methylation Assay
# Type: biochemical
# EXPERIMENTAL CONDITIONS: read-out: Enzyme Methylation Assay IC50_2
MEASURED QUANTITY: log10 of IC50 (log10 of the value in nM)
Values reflect log10 of reported IC50 (nM).

// worked examples, log10 of IC50 included
[[record]]
compound = "CC[C@H]1CN(C[C@@H](O)[C@@H]2Cc3ccccc3CN2)C(=O)c2ccc(-c3ncnn3C)cc21 (single isomer, unassigned) [Example 7]"
reported_result = 2.50

[[record]]
compound = "CCC1CN(CC(O)[C@@H]2Cc3ccccc3CN2)C(=O)c2ccc(C(=O)N3C4CCC3COC4)cc21 (some centres unmarked)"
reported_result = 2.40

[[record]]
compound = "CO[C@H]1C[C@H]2CC[C@@H](C1)N2C(=O)c1ccc2c(c1)C(C)(C)CN(C[C@@H](O)[C@@H]1Cc3ccccc3CN1)C2=O"
reported_result = 1.99

[[record]]
compound = "CC1(C)CN(C[C@@H](O)[C@@H]2Cc3ccccc3CN2)C(=O)c2ccc(-c3ncnn3C3CC3)cc21"
reported_result = 2.63

[[record]]
compound = "CC1(C)CN(C[C@@H](O)[C@@H]2Cc3ccccc3CN2)C(=O)c2ccc(C(=O)N3[C@@H]4CC[C@H]3C[C@@H](O)C4)cc21"
reported_result = 1.94


Ask | Entry CC[C@H]1CN(C[C@@H](O)[C@@H]2Cc3ccccc3CN2)C(=O)c2ccc(-c3ncnn3C)cc21 (single isomer, unassigned) [Example 8] has what log10 of IC50?
Reply | 4.45

Ask | Which log10 of IC50 value is on record for `CO[C@H]1C[C@H]2CC[C@@H](C1)N2C(=O)c1ccc2c(c1)C(C)(C)CN(C[C@H](O)[C@@H]1Cc3ccccc3CN1)C2=O` ?
Reply | 3.88
